System: MOLM14 cells
ASSAY NAME: Proliferation assay, spheroid-like growth, MOLM14 (MLL-AF9 rearranged)
Assay type: cell-based, human
RUN PARAMETERS: Homo sapiens, MOLM-14, 192 h, 8 days, confluence as measure of spheroid size, read-out: spheroid assay_OneTime MOLM14 IC50
pIC50: −log10 of the molar value.
MEASURED PARAMETER: pIC50

| MOLECULE | ASSAY TARGET | pIC50 |
| --- | --- | --- |
| CC(C)[C@H]([C@H]1C[C@@H](NC(=O)C2(F)CC2)C1)N1CC2(CCN(c3ncnnc3Oc3ccc(F)cc3-c3n[nH]c(=O)cc3C3CC3)C2)C1 (single isomer, unassigned) [Compound 311] | MOLM14 cells | 7.28 |

1 = CC(C)[C@@H]([C@H]1C[C@@H](N2CCN(C(=O)N(C)C)CC2)C1)N1CC2(CCN(c3ncnnc3Oc3ccc(F)cc3-c3cccnc3C3CC3)C2)C1 (single isomer, unassigned) [Compound 92]
2 = CC(C)[C@H]([C@H]1C[C@@H](Nc2ccn3ccnc3c2)C1)N1CC2(CCN(c3ncnnc3Oc3ccc(F)cc3-c3cncnc3C3CC3)C2)C1 (single isomer, unassigned) [Compound 406]
Field: lower recorded pIC50 (choose 1 or 2 ) Give the chosen item's label as your response.
2
(2: 7.38, 1: 8.15)
